# PROTOCOL_SUMMARY: Cytotoxicity against human MCF-10A cells assessed as cell viability incubated for 96 hrs by MTT assay
# Format: toxicity, cell-based
# Parameters: concentration or dose not given beside the values
# CONDITION_SUMMARY: read-out: Activity
viability at 96 h by entry:
Answer in %, number only, no unit symbol.

MOLECULE: COc1ccc(OC)c2c1CCC(=C\c1cc(OC)c(OC)c(OC)c1Br)/C2=N\O
UNIT_STRING: %
READOUT_VALUE: 89
--
MOLECULE: COc1cc(/C=C2\CN(C)C/C(=C\c3cc(OC)c(OC)c(OC)c3Br)C2=O)c(Br)c(OC)c1OC
UNIT_STRING: %
READOUT_VALUE: 92
--
MOLECULE: COc1ccc(OC)c2c1CC/C(=C\c1ccc(OC)c(OC)c1Cl)C2=O
UNIT_STRING: %
READOUT_VALUE: 90

Ask: Input COc1cccc(/C=C2\CC(C)c3ccccc3C2=O)c1Cl (centres undefined) , output reported viability at 96 h.
Result: 98

Ask: Input COc1ccc(/C=C2\CCc3ccc(Br)cc3C2=O)c(Cl)c1OC , output reported viability at 96 h.
Result: 92
